- Tested on: SR leukemia
- Procedure details: NCI-60 one-dose screen, 48 h (100 = growth as untreated, 0 = no growth, -100 = all killed)
- Experimental parameters: 10 µM unless noted
About 83,000 compounds went through this panel and 20% of them were active in at least one assay; those are over-represented in the sample as a whole.
Mark not fulfilled for growth values under 10%, and fulfilled for everything at or above.

These recorded examples may help you get a feel for the data.
> print(dat)
                                   compound          class
1  Cc1ccc(C2CC(c3ccc(S(=O)(=O)NCCNc4nc(N(C)C)nc(N5CCOCC5)n4)cc3)=Nc3c(N)nc(N)nc3N2)cc1 (stereo not drawn)  not fulfilled
2  O=C(c1cc2cc(OCCCN3CCC3)ccc2[nH]1)N1C[C@@H](CCl)c2c1cc(OCc1ccccc1)c1ccccc21  not fulfilled
3  COc1ccc(NC(=O)N/N=C/c2c[nH]c3ccccc23)cc1      fulfilled

**Q:** Textbook exercise: given the entry COc1ccc(/C=C/C(=O)c2ccc(S(=O)(=O)NCCNc3nc(N(C)C)nc(N4CCOCC4)n3)cc2)cc1 , state whether its growth is greater than or equal to 10%.
**A:** fulfilled

**Q:** Reported growth at or above 10%? CCCCNC(=S)Nc1ccc(OCc2nc3ccc(Cl)cc3[nH]2)cc1
**A:** not fulfilled

**Q:** Reported growth at or above 10%? Cc1ccc(S(=O)(=O)Nc2ccc(-c3ccc4c(c3)NC(=O)/C4=C\c3ccc[nH]3)cc2)cc1
**A:** not fulfilled

**Q:** Decide: is the reported value of growth for CN(C)c1nc(NCCNS(=O)(=O)c2ccc(C(=O)/C=C/c3ccccc3)cc2)nc(N2CCOCC2)n1 equal to or greater than 10%?
**A:** not fulfilled

**Q:** Does growth meet or surpass 10% for O=C1Nc2ccccc2/C1=C\c1ccc(OCC(=O)c2ccc(Br)cc2)cc1 ?
**A:** fulfilled

**Q:** For this compound, is measured growth 10% or higher? COc1ccc(/C=C/C(=O)c2ccc(OC)c(S(N)(=O)=O)c2)c(C(F)(F)F)c1
**A:** not fulfilled

**Q:** In plain terms: is recorded growth at least 10% for COc1ccc(C2=NN(C(=O)[C@H]3[C@@H](c4ccco4)c4sc(=O)[nH]c4S[C@@H]3C)C(c3ccc4ccccc4c3)C2)cc1 (stereo partly drawn) ?
**A:** fulfilled

**Q:** Does the compound CS(=O)(=O)Nc1cc(-c2ccc3ncnc(Nc4ccc(OCc5cccnc5)c(Cl)c4)c3c2)cnc1Cl have recorded growth that is 10% or more?
**A:** not fulfilled

**Q:** Reported growth reaches at least 10% for COc1ccc2[nH]c(=O)c(CSc3ccccc3Nc3nccc(-c4ccc5c(c4)OCO5)n3)cc2c1 ?
**A:** fulfilled

**Q:** Could you verify whether the entry O=C1Nc2ccc(F)cc2/C1=C/C(=O)c1cc2ccccc2oc1=O shows growth of no less than 10%?
**A:** fulfilled

**Q:** Answer whether growth of Cc1cc(=O)oc2cc(OCC(O)CNN3C(=O)c4cccc5c(N6CCN(C)CC6)ccc(c45)C3=O)ccc12 (stereo not drawn) is greater than or equal to 10%.
**A:** fulfilled

**Q:** growth >= 10% for Cc1ccc(N=Nc2c(N)nn3c(-c4cc5cc(Br)ccc5oc4=O)ccnc23)cc1 ?
**A:** fulfilled

**Q:** Identify whether the reported growth of the following compound is 10% or greater: CCCCN1C(=O)/C(=C\C(=O)c2cc3ccccc3oc2=O)c2ccccc21
**A:** not fulfilled

**Q:** Is growth for N#Cc1ccc(C(=O)NNC(=O)CSc2nc3sc4c(c3c(=O)n2-c2ccc(Cl)cc2)CCCC4)cc1 at or above 10%?
**A:** fulfilled

**Q:** Does the compound Nc1nc(-c2ccccc2)c(N=Nc2ccc(Cl)cc2Cl)s1 have recorded growth that is 10% or more?
**A:** not fulfilled

* * *

- Test system: T-47D breast
- Procedure details: NCI-60 one-dose screen, 48 h (100 = growth as untreated, 0 = no growth, -100 = all killed)
- Experimental parameters: 10 µM unless noted
Compounds without any hit were thinned out: in the full panel of roughly 83,000, 20% have a hit.
Rule: measured growth below 10% gets 1.0; anything equal to or greater than 10% gets 0.0.

The examples below pair each entry with its known result.
Molecule	Class
OC(c1ccccc1)(c1ccccc1)C1CCN(c2ccc3nnc(Cl)n3n2)CC1	1.0
CCOc1ccccc1[C@H]1C(C(=O)c2ccc(Cl)cc2)C2(N[C@@H]1c1ccccc1)C(=O)Nc1ccc(Cl)cc12 (stereo not given in full)	0.0
Oc1ccc(F)c(Nc2nc(SCCN3CCOCC3)nc3c2cnn3CC(Cl)c2ccc(Br)cc2)c1 (stereo not given)	1.0
Nc1nc(-c2ccccc2)c(N=Nc2ccc(Cl)cc2Cl)s1	0.0
Cn1cc(-c2cc(N)n3nc(-c4c[nH]c5ccccc45)cc3n2)c2cc(F)ccc21	0.0

**Q:** Regarding CC[C@]12C=CCN3CC[C@]4(C(=C(C(=O)OC)C1)Nc1cc(OC)c([C@@H]5[C@H]6O[C@H]6[C@@]6(CC)CC(C(=O)OC)=C7Nc8cc(OC)ccc8[C@@]78CCN5[C@@H]68)cc14)[C@@H]32 , kindly confirm whether its growth is beneath 10%.
**A:** 0.0

**Q:** Is it true that growth reported for COc1ccc(N=Nc2c(N)nn3c(-c4ccc([N+](=O)[O-])cc4)ccnc23)cc1 is less than 10%?
**A:** 0.0

**Q:** Find out if reported growth for CN(C)CCOc1ccc(C(=O)C2[C@H](c3ccc(Cl)cc3)[C@@H](c3ccccc3)NC23C(=O)Nc2ccc(Cl)cc23)cc1 (stereo not given in full) is less than 10%
**A:** 1.0

**Q:** I wonder whether Fc1ccc(F)c(CNc2nc(SCCN3CCOCC3)nc3c2cnn3CC(Cl)c2ccc(Br)cc2)c1 (stereo not given) has growth below 10%. Can you tell?
**A:** 0.0

* * *

- System: SK-MEL-5 melanoma
- Procedure details: NCI-60 one-dose screen, 48 h
- Experimental parameters: 10 µM unless noted
About 83,000 compounds went through this panel and 20% of them were active in at least one assay; those are over-represented in the sample as a whole. Calls of active or inactive are those of the source. The calls were made as follows: active = growth percent below 10; inactive = the rest.
Select the correct class. Options are active, inactive and nothing else.

Reference set, count: 3
> print(dat)
                                test.smiles     class
1  O=C(Nc1ccc(Cl)c(C(F)(F)F)c1)N1CCN(c2cc(-c3cn(-c4ccccc4)nc3-c3cccc(O)c3)ccn2)CC1    active
2  C[C@@H]1[C@H]2C[C@@H](C[C@H]1NCc1nc3ccccc3n1C1CCCCCC1)C2(C)C    active
3  Cc1ccc(/C=C/C(=O)c2ccc(S(=O)(=O)NCCNc3nc(N(C)C)nc(N4CCOCC4)n3)cc2)cc1  inactive

**Q:** Any idea what this test logged for N#Cc1cc(-c2ccc3ncnc(N4CCc5cc(F)c(Cl)cc54)c3c2)cnc1N ?
**A:** inactive

* * *

# growth values compiled below
- Test system: SK-MEL-2 melanoma
- Procedure details: NCI-60 one-dose screen, 48 h (100 = growth as untreated, 0 = no growth, -100 = all killed)
- Experimental parameters: 10 µM unless noted
This is part of a sample that, as a whole, favours compounds with a hit. Of some 83,000 tested, about 20% had one in any assay.
Please respond with the number in % and leave the unit unwritten.

Per the records, this compound ( Cn1cc(-c2cc(N)n3nc(-c4c[nH]c5ccccc45)cc3n2)c2cc(Br)ccc21 ) has growth equal to -65.4

Item: COc1ccc2ccccc2c1/C=C1\SC(=Nc2ccc(O)cc2)NC1=O | growth: 27.1

Sample COc1cc(-c2ccc3ncnc(N4CCc5ccc(Cl)cc54)c3c2)cnc1Cl ; growth observed: 54.2

Data point: Cc1ccc(C2CC(c3ccc(NC(=O)Nc4ccccc4)cc3)=NN2c2ccc(S(N)(=O)=O)cc2)cc1 (stereo not given) ; growth = -81.7

For reference, reported growth for Nc1nnc(CS(=O)(=O)c2ccccc2)s1 stands at 113

* * *

The reader will find reported growth values listed item by item below.
- System: NCI-H226 lung
- Procedure details: NCI-60 one-dose screen, 48 h (100 = growth as untreated, 0 = no growth, -100 = all killed)
- Experimental parameters: 1 µM
About 83,000 compounds went through this panel and 20% of them were active in at least one assay; those are over-represented in the sample as a whole.
Numbers only here, please. The scale is %.

> print(dat)
                                test.smiles  observed
1  CC/C(=C(/c1ccc(O)cc1)c1ccc(OCCN(C)C(=O)COCCOCCNC(=O)c2ccc3c(c2)CN([C@@H]2CCC(=O)NC2=O)C3=O)cc1)c1ccccc1      89.4
2  CC/C(=C(\c1ccc(O)cc1)c1ccc(OCCN(C)C(=O)COCCNC(=O)Cc2ccc3c(c2)CN([C@@H]2CCC(=O)NC2=O)C3=O)cc1)c1ccccc1      77.4
3  CC/C(=C(/c1ccc(O)cc1)c1ccc(OCCN(C)C(=O)CCOCCNC(=O)Cc2ccc3c(c2)CN([C@@H]2CCC(=O)NC2=O)C3=O)cc1)c1ccccc1      93.9
4  CC/C(=C(/c1ccc(O)cc1)c1ccc(OCCN(C)C(=O)COCCOCCNC(=O)Cc2ccc3c(c2)CN([C@@H]2CCC(=O)NC2=O)C3=O)cc1)c1ccccc1      93.8

Next compound, growth to be filled in.
Measured growth of CC/C(=C(\c1ccc(O)cc1)c1ccc(OCCNC)cc1)c1ccccc1 : 85.9
